For each of the molecules below, state its ONSET MELTING.
# PROTOCOL_SUMMARY: Thermal stability assessment by nanoDSC
# Type: physicochemical
# CONDITION_SUMMARY: 1 mg/mL in PBS, scan 25-100° C. at 1° C./min
Give just the number in °C; leave the unit off.

Exam item: Reported ONSET MELTING for SEQ ID NO: 8: optimized CTGF-binding hNGAL lipocalin mutein (protein, lipocalin mutein) QDSTSDLIPAPPLSKVPLQQNFQDNQFQGKWYVVGLAGNYGLRTDKRPSKMFATIYELKEDKSYDVTSVRFEQERCHYTIRTFVPGSQPGEFTSGNIGNYPGSYSTLVRVVSTNYNQHAMVFFKSVIQNREYFAITLYGRTKELTSELKENFIRFSKSLGLPENHIVFPVPIDQCIDG : what is it?
Marked response: 49

Exam item: Again, but for SEQ ID NO: 27: optimized CTGF-binding hNGAL lipocalin mutein (protein, lipocalin mutein) QDSTSDLIPAPPLSKVPLQQNFQDNQFQGKWYVVGLAGNYRLREDKDPSKMGATIYELKEDKSYDVTQVQFDDKKCLYVIETFVPGSQPGEFTLGAIKSYPGLTSQLVRVVSTNYNQHAMVFLKKVYGSEEYFHITLYGRTKELTSELKENFIRFSKSLGLPENHIVFPVPIDQCIDG
Marked response: 52

Exam item: Again, but for SEQ ID NO: 17: optimized CTGF-binding hNGAL lipocalin mutein (protein, lipocalin mutein) QDSTSDLIPAPPLSKVPLQQNFQDNQFQGKWYVVGLAGNAILRTDKQPAKMFATIYELKEDKSYDVTSVRFEAKSCVYTSKTFVPGSQPGEFTAGNIKSAPGQTSTLVRVVSTNYNQHAMVFFKHVSQNREFFVITLYGRTKELTSELKENFIRFSKSLGLPENHIVFPVPIDQCIDG
Marked response: 59
